Collected % Degradation at 3 μM values appear next to each entry.
- TEST_SYSTEM: ERα in MCF7 cells (Homo sapiens (Human))
- Sequence (P03372 whole entry): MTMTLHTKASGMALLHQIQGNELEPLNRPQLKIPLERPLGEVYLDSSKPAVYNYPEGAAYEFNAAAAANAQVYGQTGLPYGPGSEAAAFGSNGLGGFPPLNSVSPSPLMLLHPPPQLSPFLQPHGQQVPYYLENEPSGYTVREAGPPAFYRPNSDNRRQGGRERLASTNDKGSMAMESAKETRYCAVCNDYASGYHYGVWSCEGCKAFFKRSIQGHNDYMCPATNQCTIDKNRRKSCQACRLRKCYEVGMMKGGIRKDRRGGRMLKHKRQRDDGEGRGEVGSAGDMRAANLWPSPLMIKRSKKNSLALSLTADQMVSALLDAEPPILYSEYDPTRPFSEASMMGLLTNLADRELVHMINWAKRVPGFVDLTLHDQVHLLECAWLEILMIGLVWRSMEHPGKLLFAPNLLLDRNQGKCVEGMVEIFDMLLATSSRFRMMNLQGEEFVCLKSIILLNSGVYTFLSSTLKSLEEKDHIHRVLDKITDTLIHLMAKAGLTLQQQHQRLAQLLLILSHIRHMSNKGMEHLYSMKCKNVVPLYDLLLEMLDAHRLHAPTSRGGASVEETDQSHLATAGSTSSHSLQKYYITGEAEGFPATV
- PROTOCOL_DESCRIPTION: Test C: estrogen receptor degradation activity, ERα in cell western assay in MCF7 cells
- Assay type: cell-based
- CONDITION_DESCRIPTION: at 3 μM, 4 hours, relative to fulvestrant
# value in %; strip the unit string

# MOLECULE, PROPERTY_MEASURED, REPORTED_MEASUREMENT
measured = [
    ("Oc1ccc2c(c1)SCCC(c1ccc(F)c(OC(F)F)c1)=C2c1ccc(O[C@H]2CCN(CCCF)C2)cc1 [Example 188]", "% Degradation at 3 μM", 90),
    ("Oc1ccc2c(c1F)OCCC(c1ccc3[nH]ccc3c1)=C2c1ccc(O[C@H]2CCN(CCCF)C2)cc1 [Example 113]", "% Degradation at 3 μM", 80),
    ("Oc1ccc2c(c1)SCC(c1ccc(C(F)F)cc1F)=C2c1ccc(O[C@H]2CCN(CCCF)C2)cc1 [Example 62]", "% Degradation at 3 μM", 80),
]

Problem: // fetch % Degradation at 3 μM given entry Oc1ccc2c(c1)SCCC(c1ccc3cc[nH]c3c1)=C2c1ccc(O[C@H]2CCN(CCCF)C2)cc1 [Example 172]
Solution: 87

Problem: Please report the measured % Degradation at 3 μM for Oc1ccc2c(c1)SCC(c1ccc(CF)cc1)=C2c1ccc(O[C@H]2CCN(CCCF)C2)cc1 [Example 61]
Solution: 82

Problem: Consider the molecule Cc1ccc(C2=C(c3ccc(O[C@H]4CCN(CCCF)C4)nc3)c3ccc(O)cc3SC2)c(F)c1 [Example 78] . State its measured % Degradation at 3 μM.
Solution: 88

Problem: Return reported % Degradation at 3 μM. Input molecule: CCOc1ccc(C2=C(c3ccc(O[C@H]4CCN(CCCF)C4)cc3)c3ccc(O)cc3SC2)c(F)c1 [Example 26]
Solution: 90

Problem: Name the recorded % Degradation at 3 μM of the molecule listed here: CC1(C)Cc2cc(C3=C(c4ccc(O[C@H]5CCN(CCCF)C5)cc4)c4ccc(O)cc4SC3)ccc2N1 [Example 29]
Solution: 92

Problem: Check the records and state % Degradation at 3 μM for Oc1ccc(C2=C(c3ccc(O[C@H]4CCN(CCCF)C4)cc3)c3cc(O)ccc3SCC2)cc1 [Example 177]
Solution: 75

Problem: For the molecule CCOc1ccc(C2=C(c3ccc(O[C@H]4CCN(CCCF)C4)cc3)c3ccc(O)cc3SCC2)c(F)c1 [Example 196] , give its reported % Degradation at 3 μM.
Solution: 93
